Test system: ATCC25922 Escherichia coli
procedure-summary: Broth microdilution test (BMD)
Assay type: cell-based
experimental-conditions: clinical gold standard broth microdilution test
metric: MIC

Some entries whose results are on file:
CO[C@@]1(NC(=O)Cc2cccs2)C(=O)N2C(C(=O)O)=C(COC(N)=O)CS[C@@H]21
2 to 4 µg/mL
CC1(C)S[C@@H]2[C@H](NC(=O)[C@H](N)c3ccccc3)C(=O)N2[C@H]1C(=O)O
4 µg/mL
NCC[C@H](O)C(=O)N[C@@H]1C[C@H](N)[C@@H](O[C@H]2O[C@H](CN)[C@@H](O)[C@H](O)[C@H]2O)[C@H](O)[C@H]1O[C@H]1O[C@H](CO)[C@@H](O)[C@H](N)[C@H]1O
1 to 4 µg/mL

Consider the additional compound presented here.
Query block: If you can, please state the reported MIC value of C[C@@H](O)[C@H]1C(=O)N2C(C(=O)O)=C(SCCN=CN)C[C@H]12 .
Result block: 0.06 to 0.25 µg/mL
